- target.entity: T1, plasma-derived human activated protein C (APC) (UniProt P04070 43-461)
- T1 chain: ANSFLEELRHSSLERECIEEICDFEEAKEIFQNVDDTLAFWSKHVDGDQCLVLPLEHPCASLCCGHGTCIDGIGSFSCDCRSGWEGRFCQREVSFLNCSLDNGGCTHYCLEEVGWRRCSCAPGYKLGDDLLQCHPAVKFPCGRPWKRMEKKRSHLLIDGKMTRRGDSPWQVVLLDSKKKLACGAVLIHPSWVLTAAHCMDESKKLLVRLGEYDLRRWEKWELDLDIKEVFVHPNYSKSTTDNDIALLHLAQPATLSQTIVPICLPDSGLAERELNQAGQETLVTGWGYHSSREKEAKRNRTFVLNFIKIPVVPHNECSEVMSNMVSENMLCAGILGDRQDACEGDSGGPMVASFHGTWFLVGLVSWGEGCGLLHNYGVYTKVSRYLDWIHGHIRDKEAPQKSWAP
- experiment.notes: SPR
pKd: −log10 of the molar value.
# pKd values compiled below
measurement.name: pKd

[[record]]
binder = "TPP-24907 (antibody, V domains shown) VL: EIVLTQSPGTLSLSPGERATLSCRASQSVSSFGATFMHWYQQKPGQPPKLLIYLASNRASGVPDRFSGSGSGTDFTLTINPVEADDTANYYCQQNNEDPYTFGQGTKLEIK"
assay_value = 7.34

[[record]]
binder = "TPP-24917 (antibody, V domains shown) VL: EIVLTQSPGTLSLSPGERATLSCRASQSVSSFGATFMHWYLQKPGQSPQLLIYLASNRASGVPDRFSGSGSGTDFTLKISRVEAEDVGVYYCQQNNEDPYTFGQGTKLEIK"
assay_value = 7.35

[[record]]
binder = "TPP-24851 (antibody, V domains shown) VL: DIVLTQSPASLAVSPGQRATITCKASQSVSSFGATFMHWYLQKPGQSPQLLIYLASNRASGVPDRFSGSGSGTDFTLTINPVEADDTANYYCQQNNEDPYTFGQGTKLEIK"
assay_value = 7.30

[[record]]
binder = "TPP-24843 (antibody, V domains shown) VL: DIVLTQSPASLAVSPGQRATITCKASQSVSSFGATFMHWYQQKPGQPPKLLIYLASNRASGVPDRFSGSGSGTDFTLTINPVEADDTANYYCQQNNEDPYTFGQGTKLEIK"
assay_value = 7.31

[[record]]
binder = "TPP-24897 (antibody, V domains shown) VL: EIVLTQSPGTLSLSPGERATLSCRASESVDSFGATFMHWYLQKPGQSPQLLIYLASNLESGVPARFSGSGSGTDFTLKISRVEAEDVGVYYCQQNNEDPYTFGQGTKLEIK"
assay_value = 7.32

[[record]]
binder = "TPP-24841 (antibody, V domains shown) VL: DIVLTQSPASLAVSPGQRATITCKASQSVSSFGATFMHWYQQKPGQPPKLLIYLASNLESGVPARFSGSGSGTDFTLKISRVEAEDVGVYYCQQNNEDPYTFGQGTKLEIK"
assay_value = 7.03

